Consider the following molecules; for each one, report its normalized growth.
- assay-remarks: chemical genetic growth profiling, strain panel (AID 1159580);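 also: tested at 20 µM; growth read once vehicle control cultures reached saturation at 30 °C; 1 = growth at the plate median or of vehicle wells; lower values mean less growth of the strain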
- details: S. cerevisiae deletion strains, growth OD, locus YJL187C, strain SWE1, active compounds read low
Screen size: about 5,500 compounds; about 2,000 (36%) were called active. Not shown: some 18% with an inconclusive outcome. The list shows a part of the results.
Give bare numbers.

COc1ccc(-c2cc(=O)c3c(OC(C)=O)cc(OC(C)=O)cc3o2)cc1 | 1.01
N[C@H](CO)Cc1ccccc1 | 1.01
COc1cc([C@@H]2c3cc4c(cc3C(O[C@@H]3O[C@@H]5CO[C@@H](c6cccs6)OC5[C@H](O)[C@H]3O)C3COC(=O)[C@@H]32)OCO4)cc(OC)c1O (some centres undefined) | 0.984
C=CCCCCCCCCCCCC(O)CC(O)CO (centres undefined) | 0.996
FC(F)(F)C(Cl)Br (centres undefined) | 1.03
CC(=O)O[C@@H]1CC2C(C)(C)[C@H](O)C[C@H](O)[C@]2(C)C2CC[C@@]3(C)[C@H](c4ccoc4)OC(=O)[C@H]4O[C@]43[C@@]21C (some centres undefined) | 1

Below is a list of molecules. For each, state its recorded normalized growth.
1. O=c1c(-c2cc(O)c(O)c(O)c2)coc2cc(O)c(O)c(O)c12
2. CC(=O)O[C@@H]1CC2C(C)(C)CCC(=O)[C@]2(C)C2CC[C@@]3(C)[C@H](c4ccoc4)OC(=O)C4OC43[C@@]21C (some centres undefined)

[0.975, 1]

Any idea what its normalized growth is? The molecule is CC(=O)Oc1ccc(-c2cc(=O)c3c(OC(C)=O)cc(OC(C)=O)cc3o2)cc1
0.976
